Where do these numbers come from? They come from patent US20240076343A1.

Below, each entry is listed alongside its reported kon.
# study_target: T1, recombinant His-tagged cynomolgus PD-1 (Acro Biosystems) (cynomolgus, UniProt B0LAJ3 25-170)
# T1 construct: His-tagged; also called Cyno PD-1; not shown: His tag (and any linker) of the Acro Biosystems product
# T1 sequence (B0LAJ3 entry or part of it limits assumed): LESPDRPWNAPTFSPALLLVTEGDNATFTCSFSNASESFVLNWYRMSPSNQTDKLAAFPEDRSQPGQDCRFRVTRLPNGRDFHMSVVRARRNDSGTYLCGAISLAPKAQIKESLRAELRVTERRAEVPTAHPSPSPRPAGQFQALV
# method: SPR Carterra LSA;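 also: antibodies or fusion proteins amine-coupled on an HC30M chip, soluble His-tagged human or cynomolgus PD-1 titrated over them, non-regenerative kinetics, constants fitted from titration curves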
Provide only the numeric value, understood in M⁻¹ s⁻¹.

For orientation, consider the following solved cases.
binder	kon, M⁻¹ s⁻¹
OMC476pE4-hIgG4 (antibody, V domains shown) VH: DVQLVESGGGVVRPGESLRLSCAASGFTFSTDAMGWVRQAPGEGLEWVSLISGSGYSTYYADSVKGRFTISRDNSKNTLYLQMNSLTAEDTAVYYCAKNSLAFFDYWGLGTLVTVSS VL: QSVLTQPPSASGTPGQRVTISCSGGSSNIGRESVNWYQQLPGTAPKLLIYSTDRRPSGVPDRFSGSKSGTSASLAISGLQSEDEADYYCGTWDNDLNGWVFGGGTKLTVLG	100000
D12-hIgG4 (antibody, V domains shown) VH: DVQLVESGGGLVQPGGSLRLSCAASGFTFDISAMSWVRQAPGKGLEWVSTISGSAYSTYYADSVKGRFTISRDNSKSTLYLQMNSLRAEDTAVYYCAREIFSDYWGLGTLVTVSS VL: QSVLTQPPSASGTPGQRVTISCSGNTSNIGRESVYWYQQLPGTAPKLLIYSNVQRPSGVPDRFSGSKSGTSASLAISGLQSEDEADYYCGTWDDSLNGWVFGGGTKLTVLG	59000

Now look at this entry.
Return reported kon; argument: Abz1mod-hIgG4 (antibody, V domains shown) VH: QVQLVQSGSELKKPGASVKVSCKASGYTFTSYAMHWVRQAPGQGLEWMGYISPFTGRATYAQGFTGRFVFSLDTSVSTAYLQISSLKAEDTAVYYCARDYDYRYYYAMDYWGQGTTVTVSS VL: EIVLTQSPDFQSVTPKEKVTITCRASQSIPPQFLHWYQQKPDQSPKLLIKAASQRASGVPSRFSGSGSGTDFTLTINSLEAEDAATYYCHQFHSSPLTFGGGTKLEIKR
170000
